# system-under-test: CYP2D6 (Homo sapiens)
# Sequence (P10635 whole entry): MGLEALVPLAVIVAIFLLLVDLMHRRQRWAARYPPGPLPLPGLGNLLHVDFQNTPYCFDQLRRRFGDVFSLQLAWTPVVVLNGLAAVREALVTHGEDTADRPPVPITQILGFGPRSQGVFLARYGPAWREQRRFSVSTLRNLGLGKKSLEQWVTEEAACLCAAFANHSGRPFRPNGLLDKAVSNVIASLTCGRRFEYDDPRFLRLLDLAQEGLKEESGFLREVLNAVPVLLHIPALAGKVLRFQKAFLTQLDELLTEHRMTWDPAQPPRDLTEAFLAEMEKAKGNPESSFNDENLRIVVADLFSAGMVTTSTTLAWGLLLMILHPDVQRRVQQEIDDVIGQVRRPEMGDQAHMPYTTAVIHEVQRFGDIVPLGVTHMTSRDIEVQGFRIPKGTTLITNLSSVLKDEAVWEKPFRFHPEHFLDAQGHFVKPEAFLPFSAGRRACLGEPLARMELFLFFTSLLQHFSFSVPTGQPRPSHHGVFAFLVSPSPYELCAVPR
# assay-name: Inhibition of CYP2D6 at 10 uM
# Format: ADME
readout-type: inhibition at 10 µM (%)
Quick note: give the figure in %, leave out the unit.

stdin: Input COc1cccc(CNC(=O)c2cc3ccc(-c4cn[nH]c4)nc3n2CCN(C)C)c1 , output reported inhibition at 10 µM.
stdout: 55

stdin: Input COc1cccc(CNC(=O)c2cn(CCN3CCCC3)c3nc(-c4cn[nH]c4)ccc23)c1 , output reported inhibition at 10 µM.
stdout: 69

stdin: Input COc1cccc(CNC(=O)c2[nH]c3nc(-c4cn[nH]c4)ccc3c2CN2CCN(C)CC2)c1 , output reported inhibition at 10 µM.
stdout: 60

====

# system-under-test: Rho-associated protein kinase 2 (Homo sapiens, UniProt O75116)
# Sequence (O75116 whole entry): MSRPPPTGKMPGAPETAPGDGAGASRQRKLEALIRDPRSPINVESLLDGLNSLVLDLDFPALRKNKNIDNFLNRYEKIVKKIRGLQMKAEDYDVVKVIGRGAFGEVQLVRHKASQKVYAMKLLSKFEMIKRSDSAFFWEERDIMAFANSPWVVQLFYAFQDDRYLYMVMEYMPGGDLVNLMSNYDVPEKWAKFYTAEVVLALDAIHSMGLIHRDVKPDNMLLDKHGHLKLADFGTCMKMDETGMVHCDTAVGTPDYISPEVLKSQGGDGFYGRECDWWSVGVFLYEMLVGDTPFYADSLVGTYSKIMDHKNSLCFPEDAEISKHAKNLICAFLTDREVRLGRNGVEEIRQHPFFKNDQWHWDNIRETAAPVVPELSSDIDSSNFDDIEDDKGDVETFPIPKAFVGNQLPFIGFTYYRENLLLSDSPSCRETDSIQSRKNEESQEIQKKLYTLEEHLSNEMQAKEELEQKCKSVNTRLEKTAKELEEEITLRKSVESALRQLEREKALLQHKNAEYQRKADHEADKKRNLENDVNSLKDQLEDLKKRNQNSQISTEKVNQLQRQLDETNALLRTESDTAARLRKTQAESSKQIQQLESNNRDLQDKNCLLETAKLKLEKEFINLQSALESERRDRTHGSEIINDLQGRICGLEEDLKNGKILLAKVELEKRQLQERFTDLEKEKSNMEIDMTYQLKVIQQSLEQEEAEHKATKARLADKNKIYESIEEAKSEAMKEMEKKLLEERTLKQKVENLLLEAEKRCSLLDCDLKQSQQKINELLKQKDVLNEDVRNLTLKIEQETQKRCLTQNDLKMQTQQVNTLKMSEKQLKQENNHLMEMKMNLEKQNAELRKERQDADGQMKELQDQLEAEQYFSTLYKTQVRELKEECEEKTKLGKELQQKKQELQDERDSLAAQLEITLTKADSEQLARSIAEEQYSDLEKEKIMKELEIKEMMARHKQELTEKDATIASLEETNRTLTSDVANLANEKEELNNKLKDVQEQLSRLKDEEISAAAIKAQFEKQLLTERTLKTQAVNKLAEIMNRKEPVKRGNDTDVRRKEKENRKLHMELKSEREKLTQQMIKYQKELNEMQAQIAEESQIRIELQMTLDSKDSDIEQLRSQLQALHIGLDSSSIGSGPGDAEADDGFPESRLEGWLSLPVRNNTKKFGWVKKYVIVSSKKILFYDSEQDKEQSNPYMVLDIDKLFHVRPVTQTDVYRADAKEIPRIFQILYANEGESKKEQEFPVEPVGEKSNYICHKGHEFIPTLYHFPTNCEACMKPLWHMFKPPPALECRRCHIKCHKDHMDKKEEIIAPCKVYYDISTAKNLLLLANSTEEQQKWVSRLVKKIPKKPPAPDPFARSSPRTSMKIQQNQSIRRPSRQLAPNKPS
# assay-name: Inhibition of ROCK2
readout-type: pIC50
Scale: pIC50 equals -log10([C]), with [C] in mol/L.

stdin: Input COc1cccc(CN(C(=O)c2cc3ccc(-c4cn[nH]c4)nc3[nH]2)C2CC2)c1 , output reported pIC50.
stdout: 8.10

stdin: Input COc1cccc(CNC(=O)c2cn(CCN3CCCC3)c3nc(-c4cn[nH]c4)ccc23)c1 , output reported pIC50.
stdout: 8.10

stdin: Input COc1cccc(CNC(=O)c2cn(CCCO)c3cc(-c4cn[nH]c4)ccc23)c1 , output reported pIC50.
stdout: 9.00

stdin: Input COc1cccc(CNC(=O)c2[nH]c3nc(-c4cn[nH]c4)ccc3c2CN2CCOCC2)c1 , output reported pIC50.
stdout: 7.80

stdin: Input COc1cccc(CN(C)C(=O)c2c[nH]c3cc(-c4cn[nH]c4)ccc23)c1 , output reported pIC50.
stdout: 8.70

stdin: Input CCN(Cc1cccc(OC)c1)C(=O)c1c[nH]c2nc(-c3cn[nH]c3)ccc12 , output reported pIC50.
stdout: 7.72

stdin: Input COc1cccc(CN(CCCN(C)C)C(=O)c2cc3ccc(-c4cn[nH]c4)cc3[nH]2)c1 , output reported pIC50.
stdout: 8.00

stdin: Input COc1cccc(CNC(=O)c2cn(-c3ccccc3)c3cc(-c4cn[nH]c4)ccc23)c1 , output reported pIC50.
stdout: 8.30

stdin: Input COc1cccc(CN(CCN(C)C)C(=O)c2cn(CCN3CCCC3)c3cc(-c4cn[nH]c4)ccc23)c1 , output reported pIC50.
stdout: 5.55

stdin: Input COc1cccc(CN(CCN2CCCC2)C(=O)c2cc3ccc(-c4cn[nH]c4)nc3[nH]2)c1 , output reported pIC50.
stdout: 7.74

stdin: Input COc1cccc(CN(CCCN2CCN(C)CC2)C(=O)c2c[nH]c3nc(-c4cn[nH]c4)ccc23)c1 , output reported pIC50.
stdout: 7.21

====

# system-under-test: CYP2C9 (Homo sapiens, UniProt P11712)
# Sequence (P11712 whole entry): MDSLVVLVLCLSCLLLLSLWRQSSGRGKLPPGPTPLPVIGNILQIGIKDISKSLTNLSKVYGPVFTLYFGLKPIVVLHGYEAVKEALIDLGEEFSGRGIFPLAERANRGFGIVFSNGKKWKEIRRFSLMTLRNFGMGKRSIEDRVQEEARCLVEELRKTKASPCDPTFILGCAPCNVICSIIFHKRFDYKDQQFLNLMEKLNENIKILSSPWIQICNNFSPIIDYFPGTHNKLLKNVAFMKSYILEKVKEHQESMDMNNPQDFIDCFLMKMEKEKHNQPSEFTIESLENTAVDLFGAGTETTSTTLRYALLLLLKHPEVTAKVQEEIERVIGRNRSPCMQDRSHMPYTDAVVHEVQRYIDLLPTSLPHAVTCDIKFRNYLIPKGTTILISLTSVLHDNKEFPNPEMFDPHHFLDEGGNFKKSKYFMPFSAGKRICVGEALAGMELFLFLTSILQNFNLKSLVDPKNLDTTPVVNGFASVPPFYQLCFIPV
# assay-name: Inhibition of CYP2C9 at 10 uM
# Assay type: ADME
readout-type: inhibition at 10 µM
Quick note: number first, unit second.

stdin: Input COc1cccc(CNC(=O)c2cn(C)c3nc(-c4cn[nH]c4)ccc23)c1 , output reported inhibition at 10 µM.
stdout: 77%

stdin: Input COc1cccc(CNC(=O)c2[nH]c3cc(-c4cn[nH]c4)ccc3c2CN2CCN(C)CC2)c1 , output reported inhibition at 10 µM.
stdout: 75%

stdin: Input COc1cccc(CNC(=O)c2[nH]c3cc(-c4cn[nH]c4)ccc3c2CN2CCOCC2)c1 , output reported inhibition at 10 µM.
stdout: 86%

stdin: Input COc1cccc(CNC(=O)c2cn(CCN3CCCC3)c3nc(-c4cn[nH]c4)ccc23)c1 , output reported inhibition at 10 µM.
stdout: 51%

All values here come from ChEMBL document CHEMBL1921670.
